Exercise: state measured T/C for each of the molecules provided.
# System: L1210 leukemia ip in BDF1 mice, survival T/C
# measurement-notes: NCI In Vivo Anticancer Drug Screen. Data for tumor model L1210 Leukemia (intraperitoneal) in B6D2F1 (BDF1) mice
# study-conditions: endpoint: mean survival time; dose: 200.0 mg/kg/injection; schedule: Q04DX002 (ip); vehicle: Klucel (hydroxypropylcellulose) (HPC); higher = longer survival
Inconclusive results and toxic doses are left out.

CC(C)(O)C#Cc1ccccc1    113 % of control
COC(=N)c1ccc(C)c(I)c1    98 % of control

Report T/C for every entry below.
1. CC(=O)Oc1c2ccccc2cc2c1ccc1ccccc12
2. CCCCCCCCCCCCCCCCCCNC(=O)Nc1nccs1
3. COC1CCC(/C=C(\C#N)C2CCC(OC)CC2)CC1 (centres undefined)
4. Cc1ccc(CN=C(N)CSS(=O)(=O)O)cc1C
5. CCOC(=O)CNc1cccc(I)c1

1. 100 % of control
2. 94 % of control
3. 92 % of control
4. 101 % of control
5. 100 % of control

Source listed as PubChem BioAssay AID248.
